The origin of these recorded values is ChEMBL document CHEMBL4028832.

System: MDA-MB-231
Assay: Cytotoxicity against human MDA-MB-231 cells after 48 hrs by MTT assay
Assay type: functional, cell-based
Conditions: MDA-MB-231, 48 h
IC50 values by entry

{"columns": ["COMPOUND_STRUCTURE_STRING", "RELATIONAL_OPERATOR", "IC50 / µM"],
 "data": [
  ["COc1cc2cc(Cn3cc(CN4C(=O)c5cccc6cccc(c56)C4=O)nn3)c3cc(OC)c(OC)cc3c2cc1OC", "=", 4.2],
  ["COc1cc2cc(Cn3cc(COc4ccc(OCc5ccccc5)cc4)nn3)c3cc(OC)c(OC)cc3c2cc1OC", ">", 20],
  ["COc1cc2cc(Cn3cc(CN4C(=O)c5ccccc5C4=O)nn3)c3cc(OC)c(OC)cc3c2cc1OC", "=", 11.8],
  ["COc1cc2cc(Cn3cc(COc4ccc5c(c4)OCO5)nn3)c3cc(OC)c(OC)cc3c2cc1OC", "=", 12.6],
  ["COc1cc2cc(Cn3cc(COc4ccccc4OC)nn3)c3cc(OC)c(OC)cc3c2cc1OC", ">", 20],
  ["COc1cc2cc(Cn3cc(CO)nn3)c3cc(OC)c(OC)cc3c2cc1OC", "=", 6.8],
  ["COc1cc2cc(Cn3cc(CCO)nn3)c3cc(OC)c(OC)cc3c2cc1OC", ">", 20],
  ["COc1cc2cc(Cn3cc(COc4c(Br)cccc4Br)nn3)c3cc(OC)c(OC)cc3c2cc1OC", ">", 20],
  ["COc1cc2cc(Cn3cc(COc4cc(OC)c(OC)c(OC)c4)nn3)c3cc(OC)c(OC)cc3c2cc1OC", "=", 19.2]
]}

###

pIC50 values by entry
Test system: MDA-MB-231
Experiment: Cytotoxicity against human MDA-MB-231 cells after 48 hrs by MTT assay
Type: functional, cell-based
Settings: MDA-MB-231, 48 h
pIC50: −log10 of the molar value.

{"columns": ["COMPOUND", "pIC50"],
 "data": [
  ["O=c1[nH]cc(F)c(=O)[nH]1 [FLUOROURACIL]", 5.36],
  ["COc1cc2cc(Cn3cc(COc4c(C)cc(C)cc4C)nn3)c3cc(OC)c(OC)cc3c2cc1OC", "< 4.70"],
  ["COc1cc2cc(Cn3cc(COc4ccc(Br)cc4)nn3)c3cc(OC)c(OC)cc3c2cc1OC", "< 4.70"],
  ["COc1cc2cc(Cn3cc(COc4ccc(-c5ccccc5)cc4)nn3)c3cc(OC)c(OC)cc3c2cc1OC", "< 4.70"],
  ["C=CCc1ccc(OCc2cn(Cc3cc4cc(OC)c(OC)cc4c4cc(OC)c(OC)cc34)nn2)c(OC)c1", "< 4.70"],
  ["COc1cc2cc(Cn3cc(CN4CCCc5ccccc54)nn3)c3cc(OC)c(OC)cc3c2cc1OC", "< 4.70"],
  ["COc1ccc2c3c(c4cc(OC)c(OC)cc4c2c1)C[C@H]1CCCN1C3 [(-)-ANTOFINE]", 7.92],
  ["COc1cc2cc(Cn3cc(CN4C(=O)c5ccc(C)cc5C4=O)nn3)c3cc(OC)c(OC)cc3c2cc1OC", 5.34]
]}

###

Tested on: HGC-27
Test: Cytotoxicity against human HGC27 cells after 48 hrs by MTT assay
Format: functional, cell-based
Settings: HGC-27, 48 h
pIC50: −log10 of the molar value.
Output true for pIC50 not less than 5; output false otherwise.

{"columns": ["COMPOUND_STRUCTURE_STRING", "TARGET_DESC", "CLASS_ASSIGNMENT"],
 "data": [
  ["COc1cc2cc(Cn3cc(CO)nn3)c3cc(OC)c(OC)cc3c2cc1OC", "HGC-27", "false"],
  ["COc1cc2cc(Cn3cc(CCO)nn3)c3cc(OC)c(OC)cc3c2cc1OC", "HGC-27", "false"],
  ["COc1cc2cc(Cn3cc(COc4c(C)cc(C)cc4C)nn3)c3cc(OC)c(OC)cc3c2cc1OC", "HGC-27", "false"],
  ["COc1cc2cc(Cn3cc(COc4cc(OC)c(OC)c(OC)c4)nn3)c3cc(OC)c(OC)cc3c2cc1OC", "HGC-27", "false"],
  ["COc1cc2cc(Cn3cc(COc4ccc(Br)cc4)nn3)c3cc(OC)c(OC)cc3c2cc1OC", "HGC-27", "true"],
  ["COc1cc2cc(Cn3cc(CN4C(=O)c5cccc6cccc(c56)C4=O)nn3)c3cc(OC)c(OC)cc3c2cc1OC", "HGC-27", "true"],
  ["COc1cc2cc(Cn3cc(COc4c(Br)cccc4Br)nn3)c3cc(OC)c(OC)cc3c2cc1OC", "HGC-27", "true"],
  ["O=c1[nH]cc(F)c(=O)[nH]1", "HGC-27", "false"],
  ["COc1cc2cc(Cn3cc(COc4ccc(-c5ccccc5)cc4)nn3)c3cc(OC)c(OC)cc3c2cc1OC", "HGC-27", "false"],
  ["COc1cc2cc(Cn3cc(CN4CCCc5ccccc54)nn3)c3cc(OC)c(OC)cc3c2cc1OC", "HGC-27", "false"]
]}

###

Test system: DU-145
Experiment: Cytotoxicity against human DU145 cells after 48 hrs by MTT assay
Assay type: functional, cell-based
Settings: DU-145, 48 h
pIC50: −log10 of the molar value.
pIC50 values by entry
ENDPOINT_LABEL: pIC50

{"columns": ["COMPOUND_STRUCTURE_STRING", "TARGET_DESC", "DATA_VALUE"],
 "data": [
  ["COc1cc2cc(Cn3cc(CO)nn3)c3cc(OC)c(OC)cc3c2cc1OC", "DU-145", "< 4.70"],
  ["COc1cc2cc(Cn3cc(COc4ccc(OCc5ccccc5)cc4)nn3)c3cc(OC)c(OC)cc3c2cc1OC", "DU-145", "< 4.70"],
  ["COc1cc2cc(Cn3cc(COc4ccccc4OC)nn3)c3cc(OC)c(OC)cc3c2cc1OC", "DU-145", "< 4.70"]
]}

###

Tested on: HGC-27
Assay: Cytotoxicity against human HGC27 cells after 48 hrs by MTT assay
Type: functional, cell-based
Conditions: HGC-27, 48 h
pIC50: −log10 of the molar value.
pIC50 values by entry
ENDPOINT_LABEL: pIC50

{"columns": ["COMPOUND_STRUCTURE_STRING", "DATA_VALUE"],
 "data": [
  ["COc1cc2cc(Cn3cc(COc4ccc(OCc5ccccc5)cc4)nn3)c3cc(OC)c(OC)cc3c2cc1OC", 5.02],
  ["COc1cc2cc(Cn3cc(COc4ccc5c(c4)OCO5)nn3)c3cc(OC)c(OC)cc3c2cc1OC", 5.02],
  ["COc1cc2cc(Cn3cc(COc4ccccc4OC)nn3)c3cc(OC)c(OC)cc3c2cc1OC", 5.04],
  ["COc1cc2cc(Cn3cc(CN4C(=O)c5ccccc5C4=O)nn3)c3cc(OC)c(OC)cc3c2cc1OC", 5.12]
]}
